ASSAY_CONDITIONS: mouse, in vivo, sc, 50 mg/kg
e = 2'-O-(2-methoxyethyl) (MOE); d = 2'-deoxy (DNA)
Reported values of hemoglobin for individual entries
Write it as a number; the unit g/dL goes unstated.

Please review the following examples before continuing.
SUBSTANCE	hemoglobin [g/dL]
ISIS 416850: MOE gapmer, nucleobases 1275 to 1318 of SEQ ID NO: 1 (Table 8) (antisense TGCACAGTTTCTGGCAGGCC; MOE gapmer, wing and gap sizes not given here)	15
ISIS 416848: MOE gapmer, nucleobases 1275 to 1318 of SEQ ID NO: 1 (Table 8) (antisense CACAGTTTCTGGCAGGCCTC; MOE gapmer, wing and gap sizes not given here)	14
ISIS 416853: MOE gapmer, nucleobases 1275 to 1318 of SEQ ID NO: 1 (Table 8) (antisense TTGGTGCACAGTTTCTGGCA; MOE gapmer, wing and gap sizes not given here)	17
ISIS 412225: 5-10-5 MOE gapmer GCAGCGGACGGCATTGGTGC (sugars from the 5' end e5 d10 e5, backbone and methylation of C not given here)	15
ISIS 416854: MOE gapmer, nucleobases 1275 to 1318 of SEQ ID NO: 1 (Table 8) (antisense ATTGGTGCACAGTTTCTGGC; MOE gapmer, wing and gap sizes not given here)	13
ISIS 416856: MOE gapmer, nucleobases 1275 to 1318 of SEQ ID NO: 1 (Table 8) (antisense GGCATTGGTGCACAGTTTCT; MOE gapmer, wing and gap sizes not given here)	14

// switching to the query substance
Ask: Read off the recorded hemoglobin for ISIS 416849: MOE gapmer, nucleobases 1275 to 1318 of SEQ ID NO: 1 (Table 8) (antisense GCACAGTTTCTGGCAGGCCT; MOE gapmer, wing and gap sizes not given here)
Result: 14

---

Reported values of BUN for individual entries
ASSAY_CONDITIONS: mouse, in vivo, sc, 50 mg/kg
e = 2'-O-(2-methoxyethyl) (MOE); d = 2'-deoxy (DNA)
Write it as a number; the unit mg/dL goes unstated.

Please review the following examples before continuing.
SUBSTANCE	VALUE_MEASURED
ISIS 416853: MOE gapmer, nucleobases 1275 to 1318 of SEQ ID NO: 1 (Table 8) (antisense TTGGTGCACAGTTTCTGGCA; MOE gapmer, wing and gap sizes not given here)	22
ISIS 413481: 5-10-5 MOE gapmer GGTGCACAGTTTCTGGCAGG (sugars from the 5' end e5 d10 e5, backbone and methylation of C not given here)	23
ISIS 416848: MOE gapmer, nucleobases 1275 to 1318 of SEQ ID NO: 1 (Table 8) (antisense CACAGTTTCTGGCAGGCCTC; MOE gapmer, wing and gap sizes not given here)	23
ISIS 412223: 5-10-5 MOE gapmer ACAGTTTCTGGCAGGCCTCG (sugars from the 5' end e5 d10 e5, backbone and methylation of C not given here)	28
ISIS 412225: 5-10-5 MOE gapmer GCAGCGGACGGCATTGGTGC (sugars from the 5' end e5 d10 e5, backbone and methylation of C not given here)	23
ISIS 416852: MOE gapmer, nucleobases 1275 to 1318 of SEQ ID NO: 1 (Table 8) (antisense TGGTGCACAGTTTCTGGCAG; MOE gapmer, wing and gap sizes not given here)	21
ISIS 416860: MOE gapmer, nucleobases 1275 to 1318 of SEQ ID NO: 1 (Table 8) (antisense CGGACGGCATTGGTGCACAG; MOE gapmer, wing and gap sizes not given here)	25
ISIS 416854: MOE gapmer, nucleobases 1275 to 1318 of SEQ ID NO: 1 (Table 8) (antisense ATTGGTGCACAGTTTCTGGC; MOE gapmer, wing and gap sizes not given here)	27

// switching to the query substance
Ask: Read off the recorded BUN for ISIS 416851: MOE gapmer, nucleobases 1275 to 1318 of SEQ ID NO: 1 (Table 8) (antisense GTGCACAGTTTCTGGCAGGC; MOE gapmer, wing and gap sizes not given here)
Result: 21

---

Reported values of monocytes for individual entries
EXPERIMENTAL_PROTOCOL: Tolerability in Sprague-Dawley rats: hematology assays (Example 44)
Type: in vivo
ASSAY_CONDITIONS: 50 mg/kg s.c. twice per week for 6 weeks, blood
Strand notation (5' to 3'): a small letter for the sugar, then the base; units joined by * are phosphorothioate-linked, units joined directly phosphodiester-linked; [ ] holds rarer units or linkages, { } end groups; capitals alone tell only the bases. e = 2'-O-(2-methoxyethyl) (MOE); [5mC] = 5-methylcytosine; d = 2'-deoxy (DNA)
Write it as a number; the unit % goes unstated.

SUBSTANCE	SCALE_UNIT	monocytes
ISIS 449710: 3-8-3, 4-8-4, 2-10-2, 3-10-3 or 4-10-4 MOE microwalk gapmer (Table 46) (antisense e[5mC]*eA*e[5mC]*dA*dG*dT*dT*dT*d[5mC]*dT*dG*dG*d[5mC]*eA*eG*eG)	%	2
ISIS 449709: 3-8-3, 4-8-4, 2-10-2, 3-10-3 or 4-10-4 MOE microwalk gapmer (Table 46) (antisense eG*e[5mC]*eA*e[5mC]*dA*dG*dT*dT*dT*d[5mC]*dT*dG*dG*d[5mC]*eA*eG*eG*e[5mC])	%	3
ISIS 449708: 3-8-3, 4-8-4, 2-10-2, 3-10-3 or 4-10-4 MOE microwalk gapmer (Table 46) (antisense eA*e[5mC]*eA*dG*dT*dT*dT*d[5mC]*dT*dG*dG*e[5mC]*eA*eG)	%	2

Ask: Read off the recorded monocytes for ISIS 449707: 3-8-3, 4-8-4, 2-10-2, 3-10-3 or 4-10-4 MOE microwalk gapmer (Table 46) (antisense e[5mC]*eA*e[5mC]*eA*dG*dT*dT*dT*d[5mC]*dT*dG*dG*e[5mC]*eA*eG*eG)
Result: 2

---

Reported values of percent inhibition of Factor 11 mRNA relative to untreated control cells for individual entries
Test system: human Factor 11 mRNA
EXPERIMENTAL_PROTOCOL: Dose-dependent inhibition of human Factor 11 in HepB3 cells, lipofectin (Example 7)
Assay type: cell-based
ASSAY_CONDITIONS: 75 nM, ~16 hours
Write it as a number; the unit % goes unstated.

Please review the following examples before continuing.
>>> df
                                  substance  value_measured
0  417003 (antisense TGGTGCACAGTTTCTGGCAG; 2-13-5 gapmer chemistry, further chemistry not given here) [compound 417003]              58
1  416858 (antisense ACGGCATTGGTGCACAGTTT; 5-10-5 gapmer, further chemistry not given here) [compound 416858]              62

// switching to the query substance
Ask: Read off the recorded percent inhibition of Factor 11 mRNA relative to untreated control cells for 416826 (antisense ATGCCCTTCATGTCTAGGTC; 5-10-5 gapmer, further chemistry not given here) [compound 416826]
Result: 66

---

System: human Factor 11 mRNA
EXPERIMENTAL_PROTOCOL: Antisense inhibition of human Factor 11 in HepG2 cells by microwalk gapmers, lipofectin, 75 nM (Example 3)
Format: cell-based
ASSAY_CONDITIONS: HepG2 cells, lipofectin, gapmers targeted to nucleobases 738 to 762 of SEQ ID NO: 1
Strand notation (5' to 3'): a small letter for the sugar, then the base; units joined by * are phosphorothioate-linked, units joined directly phosphodiester-linked; [ ] holds rarer units or linkages, { } end groups; capitals alone tell only the bases. e = 2'-O-(2-methoxyethyl) (MOE); [5mC] = 5-methylcytosine; d = 2'-deoxy (DNA)
RESULT_TYPE: % inhibition (%)
Write it as a number; the unit % goes unstated.

Please review the following examples before continuing.
In [3]: df
Out[3]:
                                  substance  scale_unit  value_measured
0  412206 (antisense e[5mC]*e[5mC]*eG*eT*eG*d[5mC]*dA*dT*d[5mC]*dT*dT*dT*d[5mC]*dT*dT*eG*eG*e[5mC]*eA*eT) [compound 412206]           %              93
1  416980 (antisense eG*eT*d[5mC]*dA*dT*d[5mC]*d[5mC]*dG*dT*dG*d[5mC]*dA*dT*d[5mC]*dT*eT*eT*e[5mC]*eT*eT) [compound 416980]           %              87
2  416834 (antisense eG*eT*e[5mC]*eA*eT*d[5mC]*d[5mC]*dG*dT*dG*d[5mC]*dA*dT*d[5mC]*dT*eT*eT*e[5mC]*eT*eT) [compound 416834]           %              58

// switching to the query substance
Ask: Read off the recorded % inhibition for 416900 (antisense eA*eT*e[5mC]*d[5mC]*dG*dT*dG*d[5mC]*dA*dT*d[5mC]*dT*dT*dT*d[5mC]*dT*dT*eG*eG*e[5mC]) [compound 416900]
Result: 90
